Target: indoleamine 2, 3-dioxygenase (IDO1) (Homo sapiens, UniProt P14902)
Sequence (P14902 whole entry): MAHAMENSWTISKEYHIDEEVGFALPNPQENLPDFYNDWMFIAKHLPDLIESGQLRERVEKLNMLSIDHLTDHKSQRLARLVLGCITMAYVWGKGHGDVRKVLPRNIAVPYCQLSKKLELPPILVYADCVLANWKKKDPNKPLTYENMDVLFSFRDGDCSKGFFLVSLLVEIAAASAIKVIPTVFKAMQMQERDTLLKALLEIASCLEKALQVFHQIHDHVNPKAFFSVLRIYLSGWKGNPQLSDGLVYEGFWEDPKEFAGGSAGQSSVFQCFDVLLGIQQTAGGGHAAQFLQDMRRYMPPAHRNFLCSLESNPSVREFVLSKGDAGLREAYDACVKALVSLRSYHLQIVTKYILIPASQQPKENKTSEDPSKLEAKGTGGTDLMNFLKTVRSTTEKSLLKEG
Assay: PBMC IDO1 assay (kynurenine via mass spectrometry)
Format: cell-based
Conditions: human PBMC stimulated with IFN-γ and LPS, 2 days, kynurenine by mass spectrometry; recorded as pIC50; read-out: PBMC PXC50_ (converted)
Method: Compounds of the present invention were tested via high-throughput cellular assays utilizing detection of kynurenine via mass spectrometry and cytotoxicity as end-points. […] Cellular toxicity due to the effect of compound treatment was measured using CellTiter-Glo® reagent (CTG) (Promega Corporation, Madison, Wis.), which is based on luminescent detection of ATP, an indicator of metabolically active cells. […]
recorded metric: IC50 (nM)

In [3]: df
Out[3]:
                                   compound  endpoint_unit  value_measured
0  CC(NC(=O)c1ccc(F)cc1)C1CCN(C(=O)Oc2ccccc2)CC1 (stereo not shown)             nM             158
1  Cc1c(F)cccc1OC(=O)N1CCC([C@H](NC(=O)c2ccc(Cl)s2)C2CC2)CC1             nM            3.16
2  O=C(NC(c1ccccc1)C1CCN(C(=O)Oc2ccccc2)CC1)c1ccc(C(F)(F)F)cn1 (stereo not shown)             nM             631
3  Cc1cccc(OC(=O)N2CCC(C(CC(C)C)NC(=O)c3ccc(F)cc3)CC2)c1C (stereo not shown)             nM            7.94
